assay: qHTS of pediatric cancer cell lines to identify multiple opportunities for drug repurposing: Primary screen for Rh18 cells (AID 1347102); conditions: Rh18 rhabdomyosarcoma viability, CellTiter-Glo luminescence, 48 h; series mostly up to 46 µM; further: nearly all actives have a fitted effect of over 65% in size
Inconclusive results are not listed. Activity calls are given as the source filed them. The call rests on the fitted dose curve; in most records, active means well fitted cell-killing curve with a large enough effect; inconclusive means small, poorly fitted or top-dose-only effect; inactive means flat fitted curve, though single readings scatter.
Your reply should match one of these outcome classes. active, inactive

Field: outcome | Entry: CCC[C@H](Nc1nc(-c2ccc(NC(=O)NCC)c(OC)c2)ncc1C)c1cccnc1
inactive

Test call, this compound: C[C@]12CC[C@@H]3c4ccc(O)cc4CC[C@H]3[C@H]1[C@@H](O)[C@@H](O)[C@H]2O
inactive

Which outcome was assigned to COc1c(C)cnc(Cn2cnc3c(Cl)nc(N)nc32)c1C in this test?
active

What outcome does the record of this test show for CN1CCN2c3ncccc3Cc3ccccc3C2C1 (centres undefined) ?
inactive

I would be grateful if you could indicate the recorded call for CCOC(=O)N1CCN([N+]([O-])=NOc2cc(ON=[N+]([O-])N3CCN(C(=O)OCC)CC3)c([N+](=O)[O-])cc2[N+](=O)[O-])CC1 .
inactive

What call does the record list for O=c1cc(-c2ccc(O)c(O)c2)oc2cc(O)cc(O)c12 ?
inactive

Entry Cc1nc(NC(=O)N2CCC[C@@H]2C(N)=O)sc1-c1csc(C(C)(C)C)n1 : call = ?
active

Per the records of this test, what outcome belongs to CC1(C)CC(=O)c2c(C(F)(F)F)nn(-c3ccc(C(N)=O)c(NC4CCC(O)CC4)c3)c2C1 (centres undefined) ?
active

Please state the recorded outcome for this compound: CC(C)(CO)[C@@H](O)C(=O)NCCC(=O)O
inactive

// return assay outcome for COc1cc([C@H]2Oc3cc([C@H]4Oc5cc(O)cc(O)c5C(=O)[C@H]4O)ccc3O[C@H]2CO)ccc1O
inactive

Per the assay record, what outcome was assigned to Cc1cccc(Nc2nc(N[C@@H]3CCCC[C@H]3N)ncc2C(N)=O)c1 ?
active

What did the test return for CCC(=O)NCC[C@@H]1CCc2ccc3c(c21)CCO3 ?
inactive

Could you please tell me the result logged for CCNC(=O)[C@H]1O[C@@H](n2cnc3c(N)nc(NCCc4ccc(CCC(=O)O)cc4)nc32)[C@H](O)[C@H]1O in this assay?
inactive

I'd appreciate the recorded outcome for CCc1cc(-c2n[nH]c(C)c2-c2ccc3c(c2)OCCO3)c(O)cc1O from this test.
active

What is the recorded call for this compound in the test? O=C(CC12CC3CC(CC(C3)C1)C2)Nc1cccc2nc(NCCNCCO)ccc12
inactive

Hello, I am checking results. What call was entered for COc1cc2c(cc1OC)[C@@H]1Cc3ccc(OC)c(OC)c3CN1CC2 ?
inactive

In this assay, the call recorded for CN(C)CC[C@H](CSc1ccccc1)Nc1ccc(S(=O)(=O)NC(=O)c2ccc(N3CCN(Cc4ccccc4-c4ccc(Cl)cc4)CC3)cc2)cc1[N+](=O)[O-] was what?
active

Call for entry CCCCC(C=O)NC(=O)C(CC(C)C)NC(=O)OCc1ccccc1 (centres undefined) :
inactive

// return assay outcome for CC(=O)O[C@]1(C(C)=O)CC[C@H]2[C@@H]3C=C(Cl)C4=CC(=O)[C@@H]5C[C@H]5[C@]4(C)[C@@H]3CC[C@@]21C
inactive

How was CC(C)c1c(C(=O)Nc2ccccc2)c(-c2ccccc2)c(-c2ccc(F)cc2)n1CC[C@H](O)C[C@@H](O)CC(=O)O classified in this test?
active

Assay outcome for NCc1c[nH]c(=S)n1[C@H]1CCc2c(F)cc(F)cc2C1 : what was it?
active

Lab log entry: COC(=O)N1CCN(Cc2cccc(NC(=O)Nc3ccc(C)nc3)c2F)CC1 — outcome as called in the assay?
inactive

What did this assay record as the result for COc1nccc(-c2c(-c3ccc(F)cc3)ncn2C2CCNCC2)n1 ?
inactive

Test call for this compound, please: CN1CC(=O)NC1=NC(=O)Nc1cccc(Cl)c1
inactive

What classification did COc1ccc(Cn2ccc3ccc(C(=O)NO)cc32)cc1 end up with in this test?
inactive

Hi, sorry to bother you, what did the test record for Cn1cc(-c2ccc3nnc(Sc4ccc5ncccc5c4)n3n2)cn1 ?
inactive

For COc1cc2ncnc(Nc3cc(Br)c(O)c(Br)c3)c2cc1OC , which call appears in the assay record?
inactive

Assay outcome for CCC(=C(CC)c1ccc(O)cc1)c1ccc(O)cc1 : what was it?
inactive

Hi team, can someone confirm the assay call for CCCCC[C@H](O)C=C[C@H]1[C@H](O)CC(=O)[C@H]1CCCCCCC(=O)O ?
inactive

Give the logged outcome of this assay for the following compound: CC1CCN(c2cc(N3CCN(C)CC3)ccc2NC(=O)c2cc(C#N)c[nH]2)CC1
inactive

Tell me the recorded outcome of this test for CCN(CCO)CCCOc1ccc2c(Nc3cc(CC(=O)Nc4cccc(F)c4)[nH]n3)ncnc2c1 .
inactive

Hi, do you know how N#Cc1c(N(CC(=O)O)CC(=O)O)sc(C(=O)O)c1CC(=O)O came out in this test?
inactive

# outcome recorded in this test, key = NC(=O)c1ccc(N(C(N)=O)c2c(F)cccc2F)nc1-c1ccc(F)cc1F
inactive

Outcome? O=C(O)c1ccc(O)c2ncc(N3CCOCC3)cc12
inactive

Would you mind telling me which call this test gave CN1CCN(c2cccc(Nc3nc4c(-c5ccc(S(C)(=O)=O)cc5)cccn4n3)c2)CC1 ?
active

Which outcome did this test record for the compound CCNC(=O)CCCC=CC[C@@H]1[C@H](C=CC(O)CCc2ccccc2)[C@@H](O)C[C@@H]1O (some centres undefined) ?
inactive

Lab log entry: COC1CCC(C(=O)c2ccc3nc4c(cc3c2)CCCO4)CC1 (centres undefined) — outcome as called in the assay?
inactive

What was the test verdict on CC(C)(OCc1nn(Cc2ccccc2)c2ccccc12)C(=O)O ?
inactive

Identify the outcome logged in this assay for the compound shown: CC1(C)OC2CC3C4CC(F)C5=CC(=O)C=CC5(C)C4C(O)CC3(C)[C@]2(C(=O)CO)O1 (some centres undefined)
inactive
